Values compiled from patent US4068070A.

# System: arterial mean blood pressure
# PROTOCOL_DESCRIPTION: Effects on arterial mean blood pressure
# Format: in vivo, mongrel adult dogs
# TEST_PARAMETERS: 2.0 mg/kg i.v., 5 min
Where a name gives a salt, the structure may show the parent alone.
MEASUREMENT_TYPE: Changes (%) of basal values, arterial mean blood pressure

>>> df
                                   molecule  recorded_number
0  COc1ccc(C(C#N)N2CCN(CC=Cc3ccccc3)CC2)cc1OC (stereo not drawn)             -3.0
1  COc1ccc(C(C#N)N2CCN(CC(=O)N3CCCC3)CC2)cc1OC (stereo not drawn)                0
2  CCOC(=O)N1CCN(C(C#N)c2ccc(OC)c(OC)c2)CC1 (stereo not drawn)             -2.6
3  COc1ccc(C(C#N)N2CCCN(CC=Cc3ccccc3)CC2)cc1OC (stereo not drawn)             -3.3
4  COc1ccc(C(C#N)N2CCNCC2)cc1OC (stereo not drawn)             -4.9
5  COc1ccc(CN2CCNCC2)c(OC)c1OC [Vastarel F, dihydrochloride, reference compound]             -2.0

----------
# System: coronary sinus oxygen tension
# PROTOCOL_DESCRIPTION: Effects on coronary sinus oxygen tension
# Format: in vivo, mongrel adult dogs
# TEST_PARAMETERS: 20.0 mg/kg i.v., 5 min
MEASUREMENT_TYPE: Changes(%) of basal values, coronary sinus oxygen tension

                                   molecule                subject_of_test  result
0  CCOC(=O)N1CCN(C(C#N)c2ccc(OC)c(OC)c2)CC1 (stereo not shown)  coronary sinus oxygen tension  +39.0%
1  COc1ccc(C(C#N)N2CCN(CC=Cc3ccccc3)CC2)cc1OC (stereo not shown)  coronary sinus oxygen tension  -21.2%
2  COc1ccc(C(C#N)N2CCCN(CC=Cc3ccccc3)CC2)cc1OC (stereo not shown)  coronary sinus oxygen tension  +20.4%
3  COc1ccc(C(C#N)N2CCN(CC(=O)N3CCCC3)CC2)cc1OC (stereo not shown)  coronary sinus oxygen tension  +86.7%

----------
# Test system: heart rate
# PROTOCOL_DESCRIPTION: Effects on heart rate
# Type: in vivo, mongrel adult dogs
# TEST_PARAMETERS: 2.0 mg/kg i.v., 5 min
# Protocol: All experiments were made on male and female thoractomized mongrel adult dogs weighing about 10 kg. under anesthesia with pentobarbital sodium. […] Arterial blood pressure was measured by pressure transducer (Nippon Koden MPU-0.5) connected with the cannula inserted from exposed carotid artery into aorta. Aortic blood flow was determined by means of electromagnetic flow meter (Nippon Koden MF-5) mounted at the origin of the aorta. […]
Where a name gives a salt, the structure may show the parent alone.
Catalogue of Changes(%) of basal values, heart rate readings, one per entry.
MEASUREMENT_TYPE: Changes(%) of basal values, heart rate

In [3]: df
Out[3]:
                                   molecule  units_symbol  recorded_number
0  COc1ccc(C(C#N)N2CCCN(CC=Cc3ccccc3)CC2)cc1OC (stereo not shown)             %             -0.6
1  COc1ccc(C(C#N)N2CCNCC2)cc1OC (stereo not shown)             %             -1.5
2  CCOC(=O)CN1CCN(C(C#N)c2ccc(OC)c(OC)c2)CC1 (stereo not shown)             %             -1.5
3  CCOC(=O)N1CCN(C(C#N)c2ccc(OC)c(OC)c2)CC1 (stereo not shown)             %             -0.6
4  COc1ccc(C(C#N)N2CCN(CC=Cc3ccccc3)CC2)cc1OC (stereo not shown)             %                0
5  COc1ccc(CN2CCNCC2)c(OC)c1OC [Vastarel F, dihydrochloride, reference compound]             %             -2.0

----------
Property: Changes(%) of basal values, coronary sinus oxygen tension; scope: individual compounds
# Tested on: coronary sinus oxygen tension
# PROTOCOL_DESCRIPTION: Effects on coronary sinus oxygen tension
# Assay type: in vivo, mongrel adult dogs
# TEST_PARAMETERS: 2.0 mg/kg i.v., imm.
Structures can show the parent of a compound that is named as a salt.
MEASUREMENT_TYPE: Changes(%) of basal values, coronary sinus oxygen tension

>>> print(df.to_string())
                                   compound  result
0  COc1ccc(C(C#N)N2CCNCC2)cc1OC (stereo not shown)  +10.9%
1  COc1ccc(C(C#N)N2CCN(CC=Cc3ccccc3)CC2)cc1OC (stereo not shown)   +6.7%
2  COc1ccc(C(C#N)N2CCN(CC(=O)N3CCCC3)CC2)cc1OC (stereo not shown)  +12.1%
3  CCOC(=O)N1CCN(C(C#N)c2ccc(OC)c(OC)c2)CC1 (stereo not shown)  +11.2%
4  COc1ccc(CN2CCNCC2)c(OC)c1OC [Vastarel F, dihydrochloride, reference compound]   +3.0%
5  COc1ccc(C(C#N)N2CCCN(CC=Cc3ccccc3)CC2)cc1OC (stereo not shown)   +8.3%
6  CCOC(=O)CN1CCN(C(C#N)c2ccc(OC)c(OC)c2)CC1 (stereo not shown)  +80.7%

----------
# Tested on: coronary sinus out flow
# PROTOCOL_DESCRIPTION: Effects on coronary sinus out flow
# Type: in vivo, mongrel adult dogs
# TEST_PARAMETERS: 2.0 mg/kg i.v., 5 min
MEASUREMENT_TYPE: Changes(%) of basal values, coronary sinus out flow

                                   molecule  recorded_number
0  COc1ccc(C(C#N)N2CCN(CC=Cc3ccccc3)CC2)cc1OC (stereo not shown)             -3.1
1  COc1ccc(C(C#N)N2CCNCC2)cc1OC (stereo not shown)             -1.7
2  COc1ccc(C(C#N)N2CCCN(CC=Cc3ccccc3)CC2)cc1OC (stereo not shown)             -0.8

----------
# System: heart rate
# PROTOCOL_DESCRIPTION: Effects on heart rate
# Type: in vivo, mongrel adult dogs
# TEST_PARAMETERS: 2.0 mg/kg i.v., 20 min
Counter-ions that a name gives are not always drawn.
MEASUREMENT_TYPE: Changes(%) of basal values, heart rate

>>> print(df.to_string())
                                   molecule  subject_of_test                        measurement_type  units_symbol  recorded_number
0  CCOC(=O)CN1CCN(C(C#N)c2ccc(OC)c(OC)c2)CC1 (stereo not shown)       heart rate  Changes(%) of basal values, heart rate             %                0
1  COc1ccc(C(C#N)N2CCN(CC=Cc3ccccc3)CC2)cc1OC (stereo not shown)       heart rate  Changes(%) of basal values, heart rate             %                0
2  COc1ccc(C(C#N)N2CCNCC2)cc1OC (stereo not shown)       heart rate  Changes(%) of basal values, heart rate             %             -1.8
3  CCOC(=O)N1CCN(C(C#N)c2ccc(OC)c(OC)c2)CC1 (stereo not shown)       heart rate  Changes(%) of basal values, heart rate             %                0
4  COc1ccc(CN2CCNCC2)c(OC)c1OC [Vastarel F, dihydrochloride, reference compound]       heart rate  Changes(%) of basal values, heart rate             %             -1.5
5  COc1ccc(C(C#N)N2CCN(CC(=O)N3CCCC3)CC2)cc1OC (stereo not shown)       heart rate  Changes(%) of basal values, heart rate             %                0
6  COc1ccc(C(C#N)N2CCCN(CC=Cc3ccccc3)CC2)cc1OC (stereo not shown)       heart rate  Changes(%) of basal values, heart rate             %                0

----------
# Test system: arterial mean blood pressure
# PROTOCOL_DESCRIPTION: Effects on arterial mean blood pressure
# Format: in vivo, mongrel adult dogs
# TEST_PARAMETERS: 20.0 mg/kg i.v., 30 min
MEASUREMENT_TYPE: Changes (%) of basal values, arterial mean blood pressure

>>> df
                                   molecule  recorded_number
0  COc1ccc(C(C#N)N2CCN(CC(=O)N3CCCC3)CC2)cc1OC (stereo not shown)            -28.0
1  COc1ccc(C(C#N)N2CCN(CC=Cc3ccccc3)CC2)cc1OC (stereo not shown)             -5.1
2  CCOC(=O)N1CCN(C(C#N)c2ccc(OC)c(OC)c2)CC1 (stereo not shown)            -14.9
3  COc1ccc(C(C#N)N2CCCN(CC=Cc3ccccc3)CC2)cc1OC (stereo not shown)            -16.2
